Target: T1, human IL-2Rγ endogenously expressed on NK-92 and Jurkat cells (human, UniProt P31785 23-369)
T1 construct: whole, on cells; on cells it stands with the other receptor subunits of the cell line; also called IL-2Rg; CD132
T1 sequence (looked up): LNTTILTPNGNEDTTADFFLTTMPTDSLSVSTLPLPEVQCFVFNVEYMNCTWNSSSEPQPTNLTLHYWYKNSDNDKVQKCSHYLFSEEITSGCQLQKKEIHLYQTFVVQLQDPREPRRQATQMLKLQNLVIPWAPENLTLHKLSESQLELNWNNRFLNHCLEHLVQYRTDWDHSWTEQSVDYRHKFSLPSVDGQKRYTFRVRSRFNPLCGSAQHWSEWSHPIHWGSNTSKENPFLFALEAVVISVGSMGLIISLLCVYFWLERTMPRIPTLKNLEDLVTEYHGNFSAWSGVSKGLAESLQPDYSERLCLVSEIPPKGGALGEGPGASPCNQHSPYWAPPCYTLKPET
Assay: flow cytometry, 10 ug/ml antibody, NK-92 cells (endogenous human IL-2Rg)
In this section we review reported Raw MFI values for a set of binders.
Readout: Raw MFI (MFI)

INSERT INTO results (binder, value_reported) VALUES
  ('H4H12886P (antibody, human IgG4 S228P, kappa, V domains shown, fully human anti-IL2Rg antibody, human IgG4) VH: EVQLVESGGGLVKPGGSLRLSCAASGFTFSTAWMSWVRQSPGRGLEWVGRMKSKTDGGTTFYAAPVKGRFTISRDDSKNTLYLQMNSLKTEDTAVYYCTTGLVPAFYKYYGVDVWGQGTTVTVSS VL: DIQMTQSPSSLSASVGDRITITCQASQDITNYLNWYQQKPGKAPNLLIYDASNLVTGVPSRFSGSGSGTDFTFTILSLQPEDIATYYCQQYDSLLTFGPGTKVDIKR', 4720),
  ('H4H12890P (antibody, human IgG4 S228P, kappa, V domains shown, fully human anti-IL2Rg antibody, human IgG4) VH: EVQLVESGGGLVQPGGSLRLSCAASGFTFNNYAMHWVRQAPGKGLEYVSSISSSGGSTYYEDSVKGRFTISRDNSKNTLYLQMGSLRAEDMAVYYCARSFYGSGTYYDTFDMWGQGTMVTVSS VL: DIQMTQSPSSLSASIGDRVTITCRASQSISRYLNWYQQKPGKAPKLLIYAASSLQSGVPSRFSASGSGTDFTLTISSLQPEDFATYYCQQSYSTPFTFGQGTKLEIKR', 4570),
  ('H4H12874P (antibody, human IgG4 S228P, kappa, V domains shown, fully human anti-IL2Rg antibody, human IgG4) VH: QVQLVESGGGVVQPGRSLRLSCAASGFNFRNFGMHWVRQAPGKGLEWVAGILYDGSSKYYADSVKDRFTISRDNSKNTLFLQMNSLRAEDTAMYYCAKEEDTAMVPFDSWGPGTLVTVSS VL: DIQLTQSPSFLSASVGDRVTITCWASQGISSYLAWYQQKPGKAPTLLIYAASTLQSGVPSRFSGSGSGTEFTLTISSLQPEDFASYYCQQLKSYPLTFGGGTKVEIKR', 6580);
